target: T1, cyno FcRn/b2M (cyno, UniProt Q8SPV9 24-297; Q8SPW0 21-119, biotinylated); experiment: SPR pH 7.4
T1 construct: bought recombinant biotinylated protein (Immunitrack ITF05 or ACRO FCM-C82W5); also called cFcRn; cFcRn/cb2M
T1 sequence (Q8SPV9 24-297 limits assumed, chain 1 of 2): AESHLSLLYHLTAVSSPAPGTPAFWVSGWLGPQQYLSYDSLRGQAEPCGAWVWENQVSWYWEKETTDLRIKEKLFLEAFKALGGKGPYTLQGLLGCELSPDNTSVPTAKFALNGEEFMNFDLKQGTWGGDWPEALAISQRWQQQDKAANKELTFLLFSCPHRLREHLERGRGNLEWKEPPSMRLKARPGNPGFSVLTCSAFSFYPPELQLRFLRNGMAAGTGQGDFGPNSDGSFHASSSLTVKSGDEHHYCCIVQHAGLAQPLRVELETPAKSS
T1 sequence (Q8SPW0 21-119 limits assumed, chain 2 of 2): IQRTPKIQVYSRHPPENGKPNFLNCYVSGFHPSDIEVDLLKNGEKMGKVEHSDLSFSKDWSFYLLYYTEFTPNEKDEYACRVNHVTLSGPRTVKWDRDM
Each entry below lists one item and its recorded pKd value.
Notebook: values listed as pKd are -log10 of the concentration (mol/L).

Some binders with known pKd results, for comparison:
T026301111 (VHH, name in Kabat numbering, tagless) VHH: EVQLVESGGGVVQPGGSLRLSCAASGFTFSEYAMYWVRQAPGKGLEWVSAISQGGGSTDYADSVKGRFTISRDNSKNTLYLQMNSLRPEDTALYYCAADTLYTSLTWYSYWGQGTLVTVSS = 5.30
T026301064 (VHH, name in Kabat numbering, tagless) VHH: EVQLVESGGGVVQPGGSLRLSCAASGFTFSSYDMYWVRQAPGKGLEWVSAISQGGGSTDYADSVKGRFTISRDNSKNTLYLQMNSLRPEDTALYYCAADTLYTSLTWYSYWGQGTLVTVSS = 5.62
T026301079 (VHH, name in Kabat numbering, tagless) VHH: EVQLVESGGGVVQPGGSLRLSCAASGFTFSSYAMYWVRQAPGKGLEWVSAISQGGGSTDYADSVKGRFTISRDNSKNTLYLQMNSLRPEDTALYYCAADTLYTSLTSYSYWGQGTLVTVSS = 5.23

// query pKd value for entry T026301075 (VHH, name in Kabat numbering, tagless) VHH: EVQLVESGGGVVQPGGSLRLSCAASTFTFSEYAMYWVRQAPGKGLEWVSAISSGGGSTDYADSVKGRFTISRDNSKNTLYLQMNSLRPEDTALYYCAADTLYTSLTWYSYWGQGTLVTVSS
5.51
